test system: NCI/ADR-RES; experiment: NCI tumour cell line growth inhibition, 48 h
Calls of active or inactive are those of the source. No stated cut-off is given here; in the data, active = GI50 up to about 1.1 µM and inactive = higher.
measurement kind: GI50

[ask] Quick one: GI50 of O=C(O)CCC(C(=O)O)N1C(=O)C2C3CCC(C3)C2C1=O (stereo unspecified) ?
[reply] > 100 µM (inactive)

[ask] So what's the measured GI50 for this one? N#CSc1[nH]cnc1C(N)=O
[reply] > 85.5 µM (inactive)

[ask] State the recorded GI50 for this entry: CN(CCNC(=O)c1cn(C)c2c1ccc1ccccc12)CCNC(=O)c1cn(C)c2c1ccc1ccccc12
[reply] 7.82 µM (inactive)

[ask] Which GI50 is listed for CC(=O)O[C@H]1CC[C@@]2(C)C(=CC[C@@H]3[C@@H]2CC[C@](C)(c2nnc(C)o2)[C@H]3CC#N)C1 ?
[reply] > 100 µM (inactive)

[ask] Can you share its GI50? I mean this compound: Cc1ccc(/C=C2\CCS(=O)(=O)c3ccccc3C2=O)cc1
[reply] 11.5 µM (inactive)

[ask] // query GI50 value for entry O=C(O)C1Cc2ccccc2OC1=O (stereo unspecified)
[reply] > 100 µM (inactive)

====

Please respond with reported GI50 for every item in the list.
tested on: MCF7; assay: NCI tumour cell line growth inhibition, 48 h
Calls of active or inactive are those of the source. No stated cut-off is given here; in the data, active = GI50 up to about 1.1 µM and inactive = higher.

[ask] Entry CCCn1c(=O)c(N2CCN(c3ccccc3)CC2)nc2sc3ccccc3c21 : reported GI50 = ?
[reply] > 100 µM (inactive)

[ask] Fill in the blank: the reported GI50 of C[N+]1(C)C/C(=C\C=C\c2ccccc2)C(=O)/C(=C/C=C/c2ccccc2)C1 is ____.
[reply] 10.2 µM (inactive)

[ask] What does the data say about its GI50? Entry: O=C1Nc2ccccc2C1(O)Cc1ccccn1 (stereo not drawn)
[reply] > 100 µM (inactive)

[ask] Dear colleague, I am looking for the recorded GI50 of the following molecule: CCOC(=O)CCSS(=O)(=O)C(F)(F)F
[reply] > 100 µM (inactive)

[ask] Given the molecule CC(C)(C)N1NC1C1NN1C(C)(C)C (stereo not drawn) , what is its reported GI50?
[reply] > 100 µM (inactive)

[ask] Looking for the measured GI50 of CC(=O)Nc1ccc2cc(C#N)c(=O)[nH]c2n1 , can you help?
[reply] > 100 µM (inactive)

[ask] // GI50 lookup, key: C=C1CC[C@@H]2[C@](C)(COC(=O)CCC(=O)OC)CCC[C@@]2(C)[C@@H]1CCC1=CC(=O)OC1
[reply] 38.1 µM (inactive)

[ask] Given the molecule CC1(C)C2CCC(=O)C1CC2 (stereo not drawn) , what is its reported GI50?
[reply] > 100 µM (inactive)

====

system: K562; test: NCI tumour cell line growth inhibition, 48 h
Activity calls are given as the source filed them. Cut-off read from the data, not from the text of the source: active = GI50 up to about 1.1 µM and inactive = higher.
measurement kind: GI50

[ask] # input compound: CC(=O)c1c(O)ccc2c1CC(CC=O)O2 (stereo not given) ; wanted: its GI50
[reply] > 100 µM (inactive)

[ask] Requested read-out: GI50. Entry: O=C(CSc1nnc(Cc2ccccc2)o1)Nc1cccc(Cl)c1
[reply] 46.6 µM (inactive)

[ask] Endpoint output: GI50 of Cc1ccc(N2C=Nn3c(nc4sc5c(c4c3=O)CCCC5)C2)cc1 . Value?
[reply] 38.5 µM (inactive)

[ask] Form field: reported GI50 of O=C(/C=C/c1ccc(OCc2cccc(Cl)c2)cc1)NO
[reply] 16.6 µM (inactive)

[ask] Given the entry C=CCCC(=O)C(=[N+]=[N-])C(=O)CCC(=O)c1ccccc1 , report its measured GI50.
[reply] > 10 µM (inactive)

[ask] // GI50 lookup, key: C=C(Br)C(C)(Br)CCC(Br)C(C)(C)Cl (stereo not given)
[reply] 10.2 µM (inactive)

[ask] Requested field: GI50. Item: NC1(c2cc3ccccc3s2)CCCCCC1
[reply] 10.1 µM (inactive)

[ask] Find the recorded GI50 belonging to C=C1c2ccccc2Oc2nc3nc(N)c(C#N)c(N)c3c(N)c21 and report it.
[reply] 40.7 µM (inactive)

[ask] Name the recorded GI50 for O=C(c1ccccc1)c1ccc2nc3n(c2c1)C(c1c(Cl)cccc1Cl)SC3 (stereo not given) .
[reply] 3.12 µM (inactive)

[ask] Need GI50 of CC1(C)[C@@H]2CC[C@]1(C)[C@H](OC(=O)/C=C/c1ccccc1)C2 , thanks.
[reply] 19.9 µM (inactive)

[ask] So what does the record say about GI50 for COc1ccc(N[C@H]([C@@H](c2ccccc2)[S+]([O-])c2ccc(C)cc2)C(F)(F)F)cc1 (stereo not given in full) ?
[reply] 28.4 µM (inactive)

[ask] Any idea what its GI50 is? The compound is C=C1c2c(cc3c(c2O)c(=O)c2ccccc2n3C)OC1(C)C
[reply] > 10 µM (inactive)

[ask] // returns reported GI50 for input O=C(c1ccc(NCN2C(=O)CCC2=O)cc1)c1ccc(NCN2C(=O)CCC2=O)cc1
[reply] 67.3 µM (inactive)

[ask] Recorded GI50 for CC(C)(C)N1C(C(=O)c2ccccc2)C1c1ccccc1 (stereo not given) , please?
[reply] > 100 µM (inactive)

[ask] Query (compound): CC(C)=CCC[C@](C)(O[C@@H]1O[C@H](CO)[C@@H](O)[C@H](O)[C@H]1O)[C@H]1CC[C@]2(C)[C@@H]1[C@H](O)C[C@@H]1[C@@]3(C)CC[C@H](O)C(C)(C)[C@@H]3[C@@H](O[C@@H]3O[C@H](CO)[C@@H](O)[C@H](O)[C@H]3O)C[C@]12C [GINSENOSIDE RG1] ; field requested: GI50
[reply] > 100 µM (inactive)

[ask] Given the entry CCCN/C(N)=N/C#N , report its measured GI50.
[reply] 60.3 µM (inactive)

[ask] # lookup: GI50 of CC1(C)O[C@@H](CC/C=C/CO)[C@H](CC/C=C/CO)O1
[reply] > 100 µM (inactive)

[ask] Given the compound Clc1n[nH]c2ccccc12 , what is its reported GI50?
[reply] > 100 µM (inactive)

[ask] Recorded GI50 of COc1cc(C2C(C(=O)O)=C(COC(C)=O)Oc3cc4c(cc32)OCO4)cc(OC)c1OC (stereo not given) , please.
[reply] > 100 µM (inactive)

[ask] Entry O=C1C(=C2SC(c3ccccc3)(c3ccccc3)c3ccccc32)C(=O)c2ccccc21 has what GI50?
[reply] > 100 µM (inactive)

[ask] Give the measured GI50 of O=c1cc(-c2ccccc2)oc2ccc(Oc3nnnn3-c3ccccc3)cc12 .
[reply] 3.58 µM (inactive)

[ask] Form field: reported GI50 of COC(=O)C1=CC(NC(=O)OCc2ccccc2)C(C(=O)c2ccccc2)C[C@@H]1Sc1ccccc1 (stereo not given in full)
[reply] 2.19 µM (inactive)

[ask] Need GI50 of O=C1OC(CC(=O)c2ccc(Cl)cc2)C(Cl)=C1Cl (stereo not given) , thanks.
[reply] 54.6 µM (inactive)

[ask] GI50 lookup needed for C=C=C[P+](c1ccccc1)(c1ccccc1)c1ccccc1 , thanks.
[reply] 3.4 µM (inactive)

[ask] Look at this compound and give its reported GI50. CC(C)(C)[Si](C)(C)OCC1OC(n2cnc3c(NC(=O)c4ccccc4)ncnc32)CC1O (stereo not given)
[reply] 23.4 µM (inactive)

[ask] State the recorded GI50 for this entry: COc1ccccc1Cc1nc(-c2ccccc2)nn(C2OC(COC(C)=O)C(OC(C)=O)C(OC(C)=O)C2OC(C)=O)c1=S (stereo not given)
[reply] > 58.3 µM (inactive)

[ask] GET /values?readout=GI50&item= COc1ccc(C(O)/C(=N/N)c2nc3ccc(Cl)cc3nc2O)cc1 (stereo not given)
[reply] > 100 µM (inactive)

[ask] Could you share which GI50 value was measured for CCOC(=O)Cn1c(=O)n(C)c(=O)c2[nH]cnc21 ?
[reply] > 100 µM (inactive)

[ask] Requested field: GI50. Item: N#C/C(N)=C(C#N)/N=C/NCc1ccccc1
[reply] > 100 µM (inactive)

[ask] Looking for the measured GI50 of O=C1C2=Cc3ccccc3OC2(O)Oc2cc(O)cc(O)c21 (stereo not given) , can you help?
[reply] 81.7 µM (inactive)

[ask] Consider the compound CCOC(=O)C(C(=O)OCC)=C1N[C@H](C(=O)OCC)CS1 and give its measured GI50.
[reply] > 100 µM (inactive)

[ask] Please report the recorded GI50 for CC1C2=C(CCCC2=O)N(c2ccc(Cl)cc2)C2=C1C(=O)CCC2 .
[reply] 29.9 µM (inactive)

[ask] What GI50 value was documented for this compound, CSc1ncnc2c1cnn2CCCCO ?
[reply] > 100 µM (inactive)

[ask] Endpoint output: GI50 of Nc1ccc2ncc(Nc3ccc(Cl)c(Cl)c3)nc2c1 . Value?
[reply] 18.1 µM (inactive)

[ask] Which measured GI50 value corresponds to CCCCCCCCCCCCCC(=O)CC(=O)c1c(O)cccc1O ?
[reply] 21 µM (inactive)

These data points were gathered from ChEMBL document CHEMBL1201862.
